# measured-target: T1, human ROR1-Fz (Homo sapiens, UniProt Q01973)
# T1 construct: Frizzled (Fz, residues 165-305); HIS6 (C); purchased Acro Biosystems; host or cells: HEK293
# T1 sequence (Q01973 165-305): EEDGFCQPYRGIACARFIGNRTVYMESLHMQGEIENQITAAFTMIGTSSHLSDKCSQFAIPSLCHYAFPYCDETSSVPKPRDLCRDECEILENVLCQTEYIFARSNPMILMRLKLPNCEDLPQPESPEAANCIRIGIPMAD
# test-details: Biacore off-rate and kinetic analysis, ROR1 frizzled domain
# Format: binding
# measurement-conditions: Table 11 (SP34 light chain)
assay-endpoint: Biacore human ROR1-Fz ka (M⁻¹ s⁻¹)
Respond with the bare value in M⁻¹ s⁻¹.

Record excerpt, results attached:
>  <molecule>
SRP2196-A03 (antibody, V domains shown) VH: EVQLVESGGGLVQPGGSLRLSCAASGFNITQYHIHWVRQAPGKGLEWVGYISPNSGSTHEADSVKGRFTISADTSKNTAYLQMNSLRAEDTAVYYCARDSRRYVRGWDYWGQGTLVTVSS VL: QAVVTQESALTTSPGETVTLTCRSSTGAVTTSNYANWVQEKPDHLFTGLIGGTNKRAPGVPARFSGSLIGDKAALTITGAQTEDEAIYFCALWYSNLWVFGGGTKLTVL

>  <Biacore human ROR1-Fz ka / M⁻¹ s⁻¹>
169000

$$$$
>  <molecule>
SRP2196-A07 (antibody, V domains shown) VH: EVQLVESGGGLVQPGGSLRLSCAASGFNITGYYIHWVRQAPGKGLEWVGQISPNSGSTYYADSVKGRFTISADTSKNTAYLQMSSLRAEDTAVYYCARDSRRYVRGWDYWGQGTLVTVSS VL: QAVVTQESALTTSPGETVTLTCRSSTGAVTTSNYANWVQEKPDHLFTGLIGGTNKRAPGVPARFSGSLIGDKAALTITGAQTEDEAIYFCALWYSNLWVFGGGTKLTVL

>  <Biacore human ROR1-Fz ka / M⁻¹ s⁻¹>
186000

$$$$
>  <molecule>
SRP2196-A06 (antibody, V domains shown) VH: EVQLVESGGGLVQPGGSLRLSCAASGFNITGYYIHWVRQAPGKGLEWVGQISPNSGSTHQADSVKGRFTISADTSKNTAYLQMNSLRAGDTAVYYCARDSRRYVRGWDYWGQGTLVTVSS VL: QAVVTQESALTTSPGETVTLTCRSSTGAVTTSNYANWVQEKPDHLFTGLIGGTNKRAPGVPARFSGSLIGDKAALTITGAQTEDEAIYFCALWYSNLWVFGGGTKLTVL

>  <Biacore human ROR1-Fz ka / M⁻¹ s⁻¹>
180000

$$$$
>  <molecule>
SRP2196-B04 (antibody, V domains shown) VH: EVQLVESGGGLVQPGGSLRLSCAASGFNITEYYIHWVRQAPGKGLEWVGYISPNSGATYQADSVKGRFTISADTSKNTAYLQMNSLRAEDTAVYYCARDSRRYVRGWDYWGQGTLVTVSS VL: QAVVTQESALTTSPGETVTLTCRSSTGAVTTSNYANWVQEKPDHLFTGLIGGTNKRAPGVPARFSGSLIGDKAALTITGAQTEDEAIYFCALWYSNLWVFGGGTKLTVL

>  <Biacore human ROR1-Fz ka / M⁻¹ s⁻¹>
127000

$$$$
>  <molecule>
SRP2196-A11 (antibody, V domains shown) VH: EVQLVESGGGLVQPGGSLRLSCAASGFNITGYYIHWVRQAPGKGLEWVGQISPNSGTTYDADSVKGRFTISADTSKNTAYLQMNSLRAEDTAVYYCARDSRRYVRGWDYWGQGTLVTVSS VL: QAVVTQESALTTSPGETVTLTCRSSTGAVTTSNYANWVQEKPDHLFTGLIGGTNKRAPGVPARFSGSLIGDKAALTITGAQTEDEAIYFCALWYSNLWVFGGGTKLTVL

>  <Biacore human ROR1-Fz ka / M⁻¹ s⁻¹>
191000

$$$$
>  <molecule>
SRP2196-A08 (antibody, V domains shown) VH: EVQLVESGGGLVQPGGSLRLSCAASGFNITGYYIHWVRQAPGKGLEWVGYISPNSGSTYKADSVKGRFTISADTSRNTAYLQMNSLRAEDTAVYYCARDSRRYVRSWDYWGQGTLVTVSS VL: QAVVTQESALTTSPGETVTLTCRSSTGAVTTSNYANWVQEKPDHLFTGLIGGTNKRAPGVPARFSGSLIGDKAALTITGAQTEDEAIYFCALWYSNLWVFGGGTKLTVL

>  <Biacore human ROR1-Fz ka / M⁻¹ s⁻¹>
183000

$$$$
>  <molecule>
SRP2196-B07 (antibody, V domains shown) VH: EVQLVESGGGLVQPGGSLRLSCAASGFNITGYHIHWVRQAPGEGLEWVGYISPNSGATYYADSVEGRFTISADTSKNTAYLQMHSLRAEDTAVYYCTRDSRRYVRGWDYWGQGTLVTVSS VL: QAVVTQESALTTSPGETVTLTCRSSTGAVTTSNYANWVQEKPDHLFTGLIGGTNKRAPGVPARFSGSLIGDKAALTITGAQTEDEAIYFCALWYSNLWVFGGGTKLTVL

>  <Biacore human ROR1-Fz ka / M⁻¹ s⁻¹>
185000

$$$$
>  <molecule>
SRP2196-C01 (antibody, V domains shown) VH: EVQLVESGGGLVQPGGSLRLSCAASGFNIIGYYIHWVRQAPGKGLEWVGSITPLSGATSKADSVKGRFTISADTSKNTAYLQMNSLRAEDTAVYYCARDSRRYIRSWDYWGQGTLVTVSS VL: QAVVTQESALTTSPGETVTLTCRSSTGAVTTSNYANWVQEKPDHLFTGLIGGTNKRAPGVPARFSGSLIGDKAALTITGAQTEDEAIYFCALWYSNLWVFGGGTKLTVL

>  <Biacore human ROR1-Fz ka / M⁻¹ s⁻¹>
125000

$$$$

Task item: Recorded Biacore human ROR1-Fz ka for SRP2196-A09 (antibody, V domains shown) VH: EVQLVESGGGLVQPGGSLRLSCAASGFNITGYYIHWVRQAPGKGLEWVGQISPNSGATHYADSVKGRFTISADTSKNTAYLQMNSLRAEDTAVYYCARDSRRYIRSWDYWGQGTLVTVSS VL: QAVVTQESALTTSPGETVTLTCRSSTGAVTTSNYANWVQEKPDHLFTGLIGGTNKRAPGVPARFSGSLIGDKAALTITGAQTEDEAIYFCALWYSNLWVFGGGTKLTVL , please?
Reply: 150000

Task item: Also, SRP2196-B02 (antibody, V domains shown) VH: EVQLVESGGGLVQPGGSLRLSCAASGFNITQYYIHWVRQAPGKGLEWVGYISPNSGQTYDADSVKGRFTISADTSKNTAYLQMNSLRAEDTAVYYCARDSRRYVRSWDYWGQGTLVTVSS VL: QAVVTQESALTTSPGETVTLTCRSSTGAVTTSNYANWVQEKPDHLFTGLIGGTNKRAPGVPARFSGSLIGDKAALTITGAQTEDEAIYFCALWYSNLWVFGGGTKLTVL please.
Reply: 163000
